Data provenance is paper PMC11618456.

protocol summary: in vitro
condition: Fech-mut (BALB/c background), mouse, serum from Fech-mut mice treated with K31, oral, 100 mg/kg
readout: fraction unbound at 16 h

> print(dat)
                                   molecule  measured.number
1  COc1ccc2c3c([nH]c2c1)[C@H](CC(C)C)N1C(=O)[C@H](CC(=O)NC(C)C)NC(=O)[C@@H]1C3 [K31]           0.0585

---

protocol summary: Metabolic stability in human liver microsomes
Type: in vitro ADME
condition: 30 min; 1 mg/mL HLM, 1 mM NADPH, 20 µM compound; mean ± SD
readout: Stability in HLM (% remaining) 30 min

> print(dat)
                                   compound  measured.number
1  COc1ccc2c3c([nH]c2c1)[C@H](CC(C)C)N1C(=O)[C@H](CC(=O)NC(C)C)NC(=O)[C@@H]1C3 [K31]               65
2  COc1ccc2c3c([nH]c2c1)[C@H](CC(C)C)N1C(=O)[C@H](CC(=O)NCc2ccccc2)NC(=O)[C@@H]1C3 [K33]               37
3  COc1ccc2c3c([nH]c2c1)[C@H](CC(C)C)N1C(=O)[C@H](CC(=O)NC2CCCCC2)NC(=O)[C@@H]1C3 [K23]               45
4  COc1ccc2c3c([nH]c2c1)[C@H](CC(C)C)N1C(=O)[C@H](CC(=O)NC(C)(C)C)NC(=O)[C@@H]1C3 [K3]               74

---

The entries below are paired with their reported Stability in HLM (% remaining) 60 min.
protocol summary: Metabolic stability in human liver microsomes
Type: in vitro ADME
condition: 60 min; 1 mg/mL HLM, 1 mM NADPH, 20 µM compound; mean ± SD
readout: Stability in HLM (% remaining) 60 min

> print(dat)
                                   compound                                readout         unit  measured.number
1  COc1ccc2c3c([nH]c2c1)[C@H](CC(C)C)N1C(=O)[C@H](CC(=O)NC2CCCCC2)NC(=O)[C@@H]1C3 [K23]  Stability in HLM (% remaining) 60 min  % remaining               26
2  COc1ccc2c3c([nH]c2c1)[C@H](CC(C)C)N1C(=O)[C@H](CC(=O)NC(C)(C)C)NC(=O)[C@@H]1C3 [K3]  Stability in HLM (% remaining) 60 min  % remaining               60
3  COc1ccc2c3c([nH]c2c1)[C@H](CC(C)C)N1C(=O)[C@H](CC(=O)NC(C)C)NC(=O)[C@@H]1C3 [K31]  Stability in HLM (% remaining) 60 min  % remaining               49
4  COc1ccc2c3c([nH]c2c1)[C@H](CC(C)C)N1C(=O)[C@H](CC(=O)NCc2ccccc2)NC(=O)[C@@H]1C3 [K33]  Stability in HLM (% remaining) 60 min  % remaining               18

---

Listing: CC50 at 72 h of selected molecules
protocol summary: Cytotoxicity MTT assay
Assay type: cell-based
condition: human, A549 cells, CC50, half-cytotoxic concentration, 72 h, MTT; mean ± SD (n ≥ 3)
readout: CC50 at 72 h (µM)

> print(dat)
                               smiles.entry  unit  qualifying.sign  measured.number
1  COc1ccc2c3c([nH]c2c1)[C@H](CC(C)C)N1C(=O)[C@H](CC(=O)NC(C)C)NC(=O)[C@@H]1C3    µM                >              100
2  COc1ccc2c3c([nH]c2c1)[C@H](CC(C)C)N1C(=O)[C@H](CC(=O)NCc2ccccc2)NC(=O)[C@@H]1C3    µM                =             31.1
3  COc1ccc2c3c([nH]c2c1)[C@H](CC(C)C)N1C(=O)[C@H](CC(=O)N2CCCCC2)NC(=O)[C@@H]1C3    µM                =             26.5
4  COc1ccc2c3c([nH]c2c1)[C@H](CC(C)C)N1C(=O)[C@H](CC(=O)NC(C)(C)C)NC(=O)[C@@H]1C3    µM                =             58.9
5  COc1ccc2c3c([nH]c2c1)[C@H](CC(C)C)N1C(=O)[C@H](CC(=O)NC2CCCCC2)NC(=O)[C@@H]1C3    µM                =             46.6
